Quick note: these are Ki numbers for system: A₂ receptor (Rattus norvegicus, UniProt P30543)
Sequence (P30543 whole entry): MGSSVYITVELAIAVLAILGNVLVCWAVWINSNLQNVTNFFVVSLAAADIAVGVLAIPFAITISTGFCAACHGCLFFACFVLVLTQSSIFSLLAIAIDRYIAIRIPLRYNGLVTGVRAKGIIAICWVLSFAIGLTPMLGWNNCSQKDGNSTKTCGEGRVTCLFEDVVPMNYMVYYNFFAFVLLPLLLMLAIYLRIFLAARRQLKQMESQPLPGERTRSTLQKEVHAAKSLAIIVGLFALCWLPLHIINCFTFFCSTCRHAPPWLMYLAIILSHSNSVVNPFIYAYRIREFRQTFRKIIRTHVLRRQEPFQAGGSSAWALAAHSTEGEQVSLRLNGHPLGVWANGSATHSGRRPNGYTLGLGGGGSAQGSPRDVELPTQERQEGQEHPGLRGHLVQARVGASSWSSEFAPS
readoutKind: Ki (nM)

[
  {
    "compound": "CCn1c(=O)c2c(nc(/C=C/c3ccc4c(c3)OCCO4)n2C)n(CC)c1=O [Compound 18]",
    "measuredTarget": "A₂ receptor (Rattus norvegicus, UniProt P30543)",
    "resultNumber": 1.5
  },
  {
    "compound": "CCn1c(=O)c2[nH]c(/C=C/c3ccc(OC)c(C)c3C)nc2n(CC)c1=O [Compound 9]",
    "measuredTarget": "A₂ receptor (Rattus norvegicus, UniProt P30543)",
    "resultNumber": 3.1
  },
  {
    "compound": "CCn1c(=O)c2[nH]c(/C=C/c3ccc(OC)c(C)c3OC)nc2n(CC)c1=O [Compound 13]",
    "measuredTarget": "A₂ receptor (Rattus norvegicus, UniProt P30543)",
    "resultNumber": 9.5
  },
  {
    "compound": "COc1ccc(/C=C/c2nc3c([nH]2)c(=O)n(C)c(=O)n3C)c(C)c1C [Compound 21]",
    "measuredTarget": "A₂ receptor (Rattus norvegicus, UniProt P30543)",
    "resultNumber": 22
  },
  {
    "compound": "Cn1c(=O)c2c(nc(/C=C/c3ccc4c(c3)OCO4)n2C)n(C)c1=O [Compound 24, (E)-8-(3,4-Methylenedioxystyryl)caffeine]",
    "measuredTarget": "A₂ receptor (Rattus norvegicus, UniProt P30543)",
    "resultNumber": 26
  },
  {
    "compound": "COc1ccc(/C=C/c2nc3c(c(=O)n(C)c(=O)n3C)n2C)c(OC)c1OC [Compound 20, (E)-8-(2,3,4-Trimethoxystyryl)caffeine]",
    "measuredTarget": "A₂ receptor (Rattus norvegicus, UniProt P30543)",
    "resultNumber": 50
  },
  {
    "compound": "COc1ccc(/C=C/c2nc3c(c(=O)n(C)c(=O)n3C)n2C)c(C)c1C [Compound 22]",
    "measuredTarget": "A₂ receptor (Rattus norvegicus, UniProt P30543)",
    "resultNumber": 3
  }
]
